- experiment.summary: recombinant barcode read abundance after kanamycin selection (control-corrected) (log10(CPM+1)); higher = more efficient recombination; sequences stand for … in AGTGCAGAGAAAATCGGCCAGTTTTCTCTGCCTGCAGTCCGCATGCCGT…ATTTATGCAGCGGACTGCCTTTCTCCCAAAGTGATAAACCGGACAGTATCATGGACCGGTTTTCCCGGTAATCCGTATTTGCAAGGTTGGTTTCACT; site = the 11-nt target
Please go through the items and note down their recombinant barcode read abundance (log10).
Give bare numbers.

> print(dat)
                              residue.codes    value
1  AGGCGGTCTTGGGTTCTAACCTGTTGCTTCA [AGGCGGTCTAA_LTGcore_CT_RTGcore_TG] (site AGGCGGTCTAA) (LTG core: CT, RTG core: TG)    0.171
2  GGCTCCCATTGGGTTCTAACCTGTTGCGGAT [GGCTCCCCTCC_LTGcore_AT_RTGcore_AT] (site GGCTCCCCTCC) (LTG core: AT, RTG core: AT)    0.138
3  CGGTCCCGTTGGGTTCTAACCTGTTGCCAAG [CGGTCCCCTTG_LTGcore_GT_RTGcore_CT] (site CGGTCCCCTTG) (LTG core: GT, RTG core: CT)    0.292
4  CATATTACTTGGGTTCTAACCTGTTGCCTGT [CATATTACTAG_LTGcore_CT_RTGcore_AC] (site CATATTACTAG) (LTG core: CT, RTG core: AC)  0.00796

Here's the next entry for you.
# query: recombinant barcode read abundance (log10) of entry GCGCGACGCTGGGTTCTAACCTGTTGCTTGC [GCGCGACCTAA_LTGcore_GC_RTGcore_GC] (site GCGCGACCTAA) (LTG core: GC, RTG core: GC)
0.0645
